Test system: Kochia (Kochia scoparia)
Assay summary: Test A preemergence
Assay type: in vivo
Measurement parameters: Bassia scoparia, pre-emergence, 240 h, 500 g ai/ha, preemergence; 0 to 100 scale where 0 is no effect and 100 is complete control; read-out: Kochia plant response rating
The label Condition met is reserved for pest or weed control at 500 g/ha strictly under 70%; Condition not met covers values equal to or above it.

Task: Does CN1CC(c2cccc(Br)c2)C(C(=O)Nc2ccccc2F)C1=O (stereo not shown) [Compound 1132] have pest or weed control at 500 g/ha strictly under 70%?
Output: Condition met

Task: Does Cc1cc(F)cc([C@H]2CNC(=O)[C@@H]2C(=O)Nc2ccccc2S(C)(=O)=O)c1 [Compound 1307] have pest or weed control at 500 g/ha strictly under 70%?
Output: Condition not met

Task: Does CN1C[C@H](c2ccc3c(c2)CCO3)[C@@H](C(=O)Nc2ccccc2F)C1=O [Compound 1321] have pest or weed control at 500 g/ha strictly under 70%?
Output: Condition not met

Task: Does CN1CC[C@H](c2ccc(C(F)(F)F)cc2)[C@@H](C(=O)Nc2cccc(Cl)c2F)C1=O [Compound 1228] have pest or weed control at 500 g/ha strictly under 70%?
Output: Condition met

Task: Does N#Cc1cc([C@H]2CNC(=O)[C@@H]2C(=O)Nc2ccccc2F)ccc1F [Compound 1199] have pest or weed control at 500 g/ha strictly under 70%?
Output: Condition met

Task: Does O=C1NC[C@H](c2nccc(C(F)(F)F)n2)[C@H]1C(=O)Nc1ccccc1F [Compound 1304] have pest or weed control at 500 g/ha strictly under 70%?
Output: Condition met

Task: Does CN1C[C@H](c2cccc(C(F)(F)F)c2)[C@@H](C(=O)Nc2ccc(F)cc2C(F)(F)F)C1=O [Compound 1250] have pest or weed control at 500 g/ha strictly under 70%?
Output: Condition met

Task: Does Cc1cc(F)cc([C@H]2CNC(=O)[C@@H]2C(=O)Nc2cccc(F)c2F)c1 [Compound 1309] have pest or weed control at 500 g/ha strictly under 70%?
Output: Condition met

---

Exercise: for every item that follows, state its recorded pest or weed control at 125 g/ha.
Test system: ragweed (common ragweed, Ambrosia elatior)
Assay summary: Test A postemergence
Assay type: in vivo
Measurement parameters: Ambrosia artemisiifolia, post-emergence, 240 h, 125 g ai/ha, Postemergence; visual injury after approximately 10 d; 0 to 100 scale where 0 is no effect and 100 is complete control; read-out: Plant response rating, Ragweed
Report the figure in % without appending any unit label.

Task: Name the recorded pest or weed control at 125 g/ha for CN1CC[C@H](c2cccc(Cl)c2)[C@@H](C(=O)Nc2ccccc2F)C1=O .
Output: 0

Task: Name the recorded pest or weed control at 125 g/ha for CN1C[C@H](c2cc(F)cc(C(F)(F)F)c2)[C@@H](C(=O)Nc2ccc(F)c(F)c2F)C1=O .
Output: 0

Task: Name the recorded pest or weed control at 125 g/ha for Cc1ccc([C@H]2CN(C)C(=O)[C@@H]2C(=O)Nc2cccc(F)c2F)cc1Cl .
Output: 0

Task: Name the recorded pest or weed control at 125 g/ha for CCc1ccccc1NC(=O)[C@H]1C(=O)N(C)C[C@@H]1c1ccc(C(F)(F)F)cc1 .
Output: 0

Task: Name the recorded pest or weed control at 125 g/ha for O=C(Nc1cccc(Cl)c1F)[C@H]1C(=O)N(C2CC2)CC[C@@H]1c1ccc(F)cc1 .
Output: 10
